- TARGET UNDER TEST: VIM-1 (Pseudomonas aeruginosa, UniProt A0A0F7KYQ8)
- PROTOCOL DESCRIPTION: Enzyme activity: determination of IC50, fluorescence assay with CCF2-FA substrate
- Format: biochemical
- SETTINGS: enzyme 30 pM, CCF2-FA 1.25 μM, 2 hours at 25° C.; read-out: VIM1 IC50
pIC50: −log10 of the molar value.
# binarize pIC50: threshold 8 inclusive, high side MET, low side NOT MET

COMPOUND: CC(C)C[C@H](C(=O)O)[C@H](Cc1ccc(-c2ccc([C@@H]3OC(=O)N[C@@H]3C)cc2)cn1)c1nn[nH]n1 [Example 173]
ASSIGNED CLASS: NOT MET
--
COMPOUND: CC(C)[C@H](C(=O)O)[C@H](Cc1cccc(NCCO)n1)c1nnn[nH]1 [Example 138]
ASSIGNED CLASS: NOT MET
--
COMPOUND: CCCCC(C(=O)O)[C@@H](Cc1ccc(-c2ccc(S(C)(=O)=O)cc2)cc1)c1nn[nH]n1 (stereo in doubt) [Example 183]
ASSIGNED CLASS: NOT MET
--
COMPOUND: CC(C)[C@H](C(=O)O)[C@H](Cc1ccccc1C1=CCNC1)c1nnn[nH]1 [Example 70]
ASSIGNED CLASS: NOT MET
--
COMPOUND: CCC[C@H](C(=O)O)[C@H](Cc1ccc(N2CCN(c3ccccc3)CC2)cc1)c1nn[nH]n1 [Example 226]
ASSIGNED CLASS: NOT MET
--
COMPOUND: CC(C)[C@H](C(=O)O)[C@H](Cc1ccc(C2=CCNC2)cc1)c1nnn[nH]1 [Example 60]
ASSIGNED CLASS: MET
--
COMPOUND: Nc1ccc(C[C@H](c2nnn[nH]2)[C@@H](C(=O)O)C2CCCC2)cn1 [Example 122]
ASSIGNED CLASS: MET
--
COMPOUND: CC(C)CC(C(=O)O)[C@H](Cc1ccc(S(C)(=O)=O)cc1)c1nn[nH]n1 (some centres unmarked) [Example 51]
ASSIGNED CLASS: NOT MET
--
COMPOUND: CCC[C@H](C(=O)O)[C@H](Cc1ccc(-c2cccc(C(N)=O)c2)cc1)c1nn[nH]n1 [Example 201]
ASSIGNED CLASS: MET
--
COMPOUND: CCC[C@H](C(=O)O)[C@H](Cc1ccc(N2CCC[C@H](N)C2)cc1)c1nn[nH]n1 [Example 230]
ASSIGNED CLASS: NOT MET
--
COMPOUND: CC(C)[C@H](C(=O)O)[C@H](Cc1ccc(C2CCNC2)c(F)c1)c1nnn[nH]1 (some centres unmarked) [Example 109]
ASSIGNED CLASS: MET
--
COMPOUND: CC(C)CCC[C@@H](C(=O)O)[C@H](Cc1ccccc1)c1nnn[nH]1 [Example 2]
ASSIGNED CLASS: NOT MET
--
COMPOUND: CCC[C@H](C(=O)O)[C@H](Cc1ccc(-c2cncc(N3CCN(C)CC3)c2)cc1)c1nn[nH]n1 [Example 190]
ASSIGNED CLASS: MET
--
COMPOUND: CCC[C@H](C(=O)O)[C@H](Cc1ccccc1Br)c1nnn[nH]1 [Example 26]
ASSIGNED CLASS: MET
--
COMPOUND: CC[C@H](C(=O)O)[C@@H](c1nnn[nH]1)[C@@H](C)c1ccccc1 [Example 29]
ASSIGNED CLASS: NOT MET
--
COMPOUND: CC(C)[C@H](C(=O)O)[C@H](Cc1ccc(-c2ccc3c(c2)CNC3)nc1)c1nnn[nH]1 [Example 76]
ASSIGNED CLASS: NOT MET
--
COMPOUND: CCC[C@H](C(=O)O)[C@H](Cc1ccc(C(N)=O)cn1)c1nnn[nH]1 [Example 93]
ASSIGNED CLASS: NOT MET
--
COMPOUND: CCC[C@H](C(=O)O)[C@H](Cc1ccc(-c2nnn[nH]2)cc1)c1nn[nH]n1 [Example 44]
ASSIGNED CLASS: MET
--
COMPOUND: CC(C)C[C@H](C(=O)O)[C@H](Cc1cc(F)cc(Br)c1)c1nnn[nH]1 [Example 24]
ASSIGNED CLASS: MET
--
COMPOUND: CCC(C)[C@H](C(=O)O)[C@H](Cc1ccccc1)c1nnn[nH]1 (some centres unmarked) [Example 19]
ASSIGNED CLASS: NOT MET
--
COMPOUND: CCC[C@H](C(=O)O)[C@H](Cc1ccc2ccc(N)nc2c1)c1nnn[nH]1 [Example 147]
ASSIGNED CLASS: MET
--
COMPOUND: CC(C)C[C@H](C(=O)O)[C@H](Cc1ccc2ncc(N)cc2c1)c1nnn[nH]1 [Example 119]
ASSIGNED CLASS: MET
--
COMPOUND: CCC[C@H](C(=O)O)[C@H](Cc1ccc(-c2ccccc2CN2CCCCC2)cc1)c1nn[nH]n1 [Example 205]
ASSIGNED CLASS: NOT MET
--
COMPOUND: O=C(O)[C@@H](CCCC1CCNCC1)[C@H](Cc1ccccc1)c1nnn[nH]1 [Example 36]
ASSIGNED CLASS: NOT MET
--
COMPOUND: CCCC[C@@H](C(=O)O)[C@@H](Cc1ccc(-c2ccccc2)cc1)c1nn[nH]n1 [Example 188]
ASSIGNED CLASS: NOT MET
